Tested on: SK-BR-3
test: Cytotoxicity against human SKBR3 cells after 48 hrs by SRB assay
Assay type: functional
measurement.conditions: SK-BR-3, 48 h, read-out: LC50 (the source's name)
Catalogue of CC50 readings, one per entry.
Report as a plain number; the unit nM is understood.

As a guide, the following entries are already answered.
C/C=C1\NC(=O)[C@H](Cc2ccc(Cl)cc2)NC(=O)[C@@H](C(C)C)NC(=O)[C@@H]([C@H](C)CC)NC(=O)[C@H](NC(=O)[C@H](NC(=O)[C@H](CCCN)NC(=O)[C@H]2CCCN2C(=O)[C@H](NC(=O)[C@@H](NC(=O)[C@@H](NC(=O)[C@H](NC(=O)CCCC(C)C)C(C)C)[C@@H](C)O)C(C)C)C(C)C)[C@H](C)CC)[C@H](C)OC(=O)[C@H](C(C)C)NC1=O : 206
C/C=C1\NC(=O)[C@H](Cc2ccccc2)NC(=O)[C@@H](C(C)C)NC(=O)[C@@H]([C@H](C)CC)NC(=O)[C@H](NC(=O)[C@H](NC(=O)[C@H](CCCN)NC(=O)[C@H]2CCCN2C(=O)[C@H](NC(=O)[C@H](CCC2CCCCC2)NC(=O)[C@@H](NC(=O)[C@H](NC(=O)CCCC(C)C)C(C)C)[C@@H](C)O)C(C)C)[C@H](C)CC)[C@H](C)OC(=O)[C@H](C(C)C)NC1=O : 230
C/C=C1\NC(=O)[C@H](Cc2ccccc2)NC(=O)[C@@H](C(C)C)NC(=O)[C@@H]([C@H](C)CC)NC(=O)[C@H](NC(=O)[C@H](NC(=O)[C@H](CCCN)NC(=O)[C@H]2CCCN2C(=O)[C@H](NC(=O)[C@@H](NC(=O)[C@@H]2CCCN2C(=O)[C@H](NC(=O)CCCC(C)C)C(C)C)C(C)C)C(C)C)[C@H](C)CC)[C@H](C)OC(=O)[C@H](C(C)C)NC1=O : 302
C/C=C1\NC(=O)[C@H](Cc2ccccc2)NC(=O)[C@@H](C(C)C)NC(=O)[C@@H]([C@H](C)CC)NC(=O)[C@H](NC(=O)[C@H](NC(=O)[C@H](CCCN)NC(=O)[C@H]2CCCN2C(=O)[C@H](NC(=O)[C@@H](NC(=O)[C@@H](NC(=O)[C@H](NC(=O)CCCC(C)C)C(C)C)[C@@H](C)O)C(C)C)C(C)C)[C@H](C)CC)COC(=O)[C@H](C(C)C)NC1=O : 610

Lab note: next molecule to report on.
Notebook: C/C=C1\NC(=O)[C@H](Cc2ccc(O)cc2)NC(=O)[C@@H](C(C)C)NC(=O)[C@@H]([C@H](C)CC)NC(=O)[C@H](NC(=O)[C@H](NC(=O)[C@H](CCCN)NC(=O)[C@H]2CCCN2C(=O)[C@H](NC(=O)[C@@H](NC(=O)[C@@H](NC(=O)[C@H](NC(=O)CC[C@@H](C)CC)C(C)C)[C@@H](C)O)C(C)C)C(C)C)[C@H](C)CC)[C@H](C)OC(=O)[C@H](C(C)C)NC1=O , CC50 read as 184

---

# CC50 per record follows
Tested on: HT-29
test: Cytotoxicity against human HT29 cells after 48 hrs by SRB assay
Type: functional, cell-based
measurement.conditions: Homo sapiens, HT-29, 48 h; read-out: LC50 (the source's name)
The answer is to be given in nM; state only the numeric part.

C/C=C1\NC(=O)[C@H](Cc2ccccc2)NC(=O)[C@@H](C(C)C)NC(=O)[C@@H]([C@H](C)CC)NC(=O)[C@H](NC(=O)[C@H](NC(=O)[C@H](CCCN)NC(=O)[C@H]2CCCN2C(=O)[C@H](NC(=O)[C@H](Cc2ccccc2)NC(=O)[C@@H](NC(=O)[C@H](NC(=O)CCCC(C)C)C(C)C)[C@@H](C)O)C(C)C)[C@H](C)CC)[C@H](C)OC(=O)[C@H](C(C)C)NC1=O : 69.5
C/C=C1\NC(=O)[C@H](Cc2ccccc2)NC(=O)[C@@H](C(C)C)NC(=O)[C@@H]([C@H](C)CC)NC(=O)[C@H](NC(=O)[C@H](NC(=O)[C@H](CCCN)NC(=O)[C@H]2CCCN2C(=O)[C@H](NC(=O)[C@@H](NC(=O)CNC(=O)[C@H](NC(=O)CCCC(C)C)C(C)C)C(C)C)C(C)C)[C@H](C)CC)[C@H](C)OC(=O)[C@H](C(C)C)NC1=O : 796

Attention now turns to another entry.
C/C=C1\NC(=O)[C@@H]2C[C@@H]3CCCC[C@@H]3N2C(=O)[C@@H](C(C)C)NC(=O)[C@@H]([C@H](C)CC)NC(=O)[C@H](NC(=O)[C@H](NC(=O)[C@H](CCCN)NC(=O)[C@H]2CCCN2C(=O)[C@H](NC(=O)[C@@H](NC(=O)[C@@H](NC(=O)[C@H](NC(=O)CC[C@@H](C)CC)C(C)C)[C@@H](C)O)C(C)C)C(C)C)[C@H](C)CC)[C@H](C)OC(=O)[C@H](C(C)C)NC1=O yielded CC50 of 677

---

System: DU-145
test: Cytotoxicity against human DU145 cells after 48 hrs by SRB assay
Type: functional, cell-based
measurement.conditions: Homo sapiens, DU-145, 48 h
measured.parameter: TGI (nM)
Write the value in nM as a bare number.

Use these answered entries as a reference point.
C/C=C1\NC(=O)[C@H](Cc2ccccc2)NC(=O)[C@@H](C(C)C)NC(=O)[C@@H]([C@H](C)CC)NC(=O)[C@H](NC(=O)[C@H](NC(=O)[C@H](CCCN)NC(=O)[C@H]2CCCN2C(=O)[C@H](NC(=O)[C@@H](NC(=O)[C@@H](NC(=O)[C@H](NC(=O)CC[C@@H](C)[C@H]2CC[C@H]3[C@@H]4CC[C@@H]5C[C@H](O)CC[C@]5(C)[C@H]4CC[C@]23C)C(C)C)[C@@H](C)O)C(C)C)C(C)C)[C@H](C)CC)[C@H](C)OC(=O)[C@H](C(C)C)NC1=O : 6000
CC[C@@H](C)[C@@H](NC(=O)[C@H](CCCN)NC(=O)[C@H]1CCCN1C(=O)[C@H](NC(=O)[C@@H](NC(=O)[C@@H](NC(=O)[C@H](NC(=O)CCCC(C)C)C(C)C)[C@@H](C)O)C(C)C)C(C)C)C(=O)N[C@H]1C(=O)N[C@H]([C@H](C)CC)C(=O)N[C@H](C(C)C)C(=O)N[C@@H](Cc2ccccc2)C(=O)NC(C)(C)C(=O)N[C@@H](C(C)C)C(=O)O[C@H]1C : 1390

Recorded TGI (compound C/C=C1\NC(=O)[C@H](Cc2cccs2)NC(=O)[C@@H](C(C)C)NC(=O)[C@@H]([C@H](C)CC)NC(=O)[C@H](NC(=O)[C@H](NC(=O)[C@H](CCCN)NC(=O)[C@H]2CCCN2C(=O)[C@H](NC(=O)[C@@H](NC(=O)[C@@H](NC(=O)[C@H](NC(=O)CC[C@@H](C)CC)C(C)C)[C@@H](C)O)C(C)C)C(C)C)[C@H](C)CC)[C@H](C)OC(=O)[C@H](C(C)C)NC1=O ): 1210

Documented TGI of C/C=C1\NC(=O)[C@H](Cc2ccccc2)NC(=O)[C@@H](C(C)C)NC(=O)[C@@H]([C@H](C)CC)NC(=O)[C@H](NC(=O)[C@H](NC(=O)[C@H](CCCN)NC(=O)[C@H]2CCCN2C(=O)[C@H](NC(=O)[C@@H](NC(=O)[C@@H](NC(=O)[C@H](NC(=O)Cc2cc(F)cc(F)c2)C(C)C)[C@@H](C)O)C(C)C)C(C)C)[C@H](C)CC)[C@H](C)OC(=O)[C@H](C(C)C)NC1=O : 3690

Quick note, TGI for C/C=C1\NC(=O)[C@H](Cc2ccccc2)NC(=O)[C@@H](C(C)C)NC(=O)[C@@H]([C@H](C)CC)NC(=O)[C@H](NC(=O)[C@H](NC(=O)[C@H](CCCN)NC(=O)[C@H]2CCCN2C(=O)[C@H](NC(=O)[C@@H](NC(=O)[C@@H](NC(=O)[C@@H](CC(C)C)NC(=O)CCCC(C)C)[C@@H](C)O)C(C)C)C(C)C)[C@H](C)CC)[C@H](C)OC(=O)[C@H](C(C)C)NC1=O landed at 1070

---

System: DU-145
test: Cytotoxicity against human DU145 cells after 48 hrs by SRB assay
Assay type: functional, cell-based
measurement.conditions: Homo sapiens, DU-145, 48 h; read-out: GI50
measured.parameter: GI50 (nM)
Report only the number, with the unit nM understood.

C/C=C1\NC(=O)[C@@H]2C[C@@H]3CCCC[C@@H]3N2C(=O)[C@@H](C(C)C)NC(=O)[C@@H]([C@H](C)CC)NC(=O)[C@H](NC(=O)[C@H](NC(=O)[C@H](CCCN)NC(=O)[C@H]2CCCN2C(=O)[C@H](NC(=O)[C@@H](NC(=O)[C@@H](NC(=O)[C@H](NC(=O)CC[C@@H](C)CC)C(C)C)[C@@H](C)O)C(C)C)C(C)C)[C@H](C)CC)[C@H](C)OC(=O)[C@H](C(C)C)NC1=O : 1460
C/C=C1\NC(=O)[C@H](Cc2ccccc2)NC(=O)[C@@H](C(C)C)NC(=O)[C@@H]([C@H](C)CC)NC(=O)[C@H](NC(=O)[C@H](NC(=O)[C@H](CCCN)NC(=O)[C@H]2CCCN2C(=O)[C@H](NC(=O)[C@@H](NC(=O)[C@@H](NC(=O)[C@H](NC(=O)CCCC(C)C)C(C)C)[C@@H](C)O)C(C)C)C(C)C)[C@H](C)CC)COC(=O)[C@H](C(C)C)NC1=O : 5040

Would you kindly look at the next entry?
Per the records, this compound ( C/C=C1\NC(=O)[C@H](CCC2CCCCC2)NC(=O)[C@@H](C(C)C)NC(=O)[C@@H]([C@@H](C)CC)NC(=O)[C@H](NC(=O)[C@H](NC(=O)[C@H](CCCN)NC(=O)[C@H]2CCCN2C(=O)[C@H](NC(=O)[C@@H](NC(=O)[C@@H](NC(=O)[C@H](NC(=O)CCCC(C)C)C(C)C)[C@@H](C)O)C(C)C)C(C)C)[C@@H](C)CC)[C@@H](C)OC(=O)[C@H](C(C)C)NC1=O ) has GI50 equal to 464
